Target: HA-tagged human ILT7 on CT-550 cells (human, UniProt P59901 24-499)
Sequence (P59901 24-499): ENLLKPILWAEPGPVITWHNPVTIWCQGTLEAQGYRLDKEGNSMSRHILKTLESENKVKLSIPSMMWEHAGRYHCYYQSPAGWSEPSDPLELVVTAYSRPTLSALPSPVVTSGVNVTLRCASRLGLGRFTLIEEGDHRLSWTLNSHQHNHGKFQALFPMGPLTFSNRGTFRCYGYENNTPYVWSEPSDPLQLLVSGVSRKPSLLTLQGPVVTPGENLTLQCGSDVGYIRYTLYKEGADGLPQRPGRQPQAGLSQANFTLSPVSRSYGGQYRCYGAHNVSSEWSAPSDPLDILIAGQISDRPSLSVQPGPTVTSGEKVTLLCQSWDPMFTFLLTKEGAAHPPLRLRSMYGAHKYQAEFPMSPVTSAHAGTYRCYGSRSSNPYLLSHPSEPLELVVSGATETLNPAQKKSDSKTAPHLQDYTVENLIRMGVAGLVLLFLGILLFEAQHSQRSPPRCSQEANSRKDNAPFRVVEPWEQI
Assay: cell-based or functional assay
Assay Metric: ADCC EC50

INSERT INTO results (binder, result) VALUES
  ('ILT70083.3 (antibody, V domains shown, Engineered (germlined) IgG1 variant of ILT70083) VH: EVQLLESGGGLVQPGGSLRLSCAASGFTFSSYAMSWVRQAPGKGLEWVSAISGSGGSTYYADSVKGWFTISRDNSKNTLYLQMNSLRAEDTAVYYCARRTYYYDSDGHSDVFDIWGRGTLVTVSS VL: QSVVTQPPSVSAAPGQKVTISCSGSASNIGSNFVSWYQQLPGTAPKLLIYDNDKRDLGIPDRFSGSKSGTSATLGITGLQTGDEADYYCGTWDTSLTVGVFGGGTKLTVL', '> 89 pM'),
  ('ILT70080.2 (antibody, V domains shown, Engineered (germlined) variant of ILT70080, tested as IgG1) VH: QVQLVQSGAEVKKPGSSVKVSCKASGDSFRNYAVSWVRQAPGQGLEWMGAMMPSFGTREHSQQFQGRVTLSADESTSTAYMELSSLRSEDTAVYYCAGSRDYNAYHFWTGPPDFWGRGTLVTVSS VL: SYVLTQPPSVSVAPGKTARITCGGDSVGSTSVHWYQQKPGQAPVMVMFYNSDRPSGIPERFSGSISGNTATLTISRVEAGDEADYYCQVWDTSSDHPEFGGGTKLTVL', '< 14.1 pM'),
  ('ILT70083.4 (antibody, V domains shown, Engineered (germlined) IgG1 variant of ILT70083) VH: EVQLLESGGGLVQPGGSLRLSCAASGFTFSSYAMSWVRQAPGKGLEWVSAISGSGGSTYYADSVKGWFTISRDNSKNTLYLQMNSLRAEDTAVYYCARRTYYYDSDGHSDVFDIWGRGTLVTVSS VL: QSVLTQPPSVSAAPGQKVTISCSGSASNIGSNFVSWYQQLPGTAPKLLIYDNDKRDLGIPDRFSGSKSGTSATLGITGLQTGDEADYYCGTWDTSLTVGVFGGGTKLTVL', '> 89 pM');
